System: CCRF-CEM cells
EXPERIMENTAL DETAILS: Intracellular accumulation of [3H]vinblastine in CCRF-CEM cells
Format: cell-based, human
MEASUREMENT CONDITIONS: 30 μM, washed
Label Y when [3H]vinblastine accumulation < 30 fmole/10^3 cells; otherwise N.

Task: Hi there! Is [3H]vinblastine accumulation for C=CC(C)(C)C12CC3c4nc5ccccc5c(=O)n4C(C)C(=O)N3C1N(C(C)=O)c1ccccc12 (centres unmarked) below 30 fmole/10^3 cells, do you know?
Output: N

Task: Given C=CC(C)(C)C12CC3c4nc5ccccc5c(=O)n4C(C)C(=O)N3C1N(C(=O)C(F)(F)F)c1ccccc12 (centres unmarked) , is recorded [3H]vinblastine accumulation strictly lower than 30 fmole/10^3 cells?
Output: Y

* * *

Below, each of the compounds is paired with its reported pIC50 value.
Test system: CCRF-CEM cells
EXPERIMENTAL DETAILS: Cytotoxicity / growth inhibition of CCRF-CEM leukemic cells
MEASUREMENT CONDITIONS: Table 5A, single determinations
Answer as the number alone; pIC50 is minus log10 of concentration in mol/L.

COMPOUND	pIC50
C=CC(C)(C)C12CC3C(=O)NCC(=O)N3C1N(C(C)=O)c1ccccc12 (stereo not drawn)	4.64

Task: Quick check: pIC50 on CCRF-CEM cells, item C=CC(C)(C)C12CC3C(=O)NC(C)C(=O)N3C1N(C(=O)C(F)(F)F)c1ccccc12 (stereo not drawn) [5N-F3 -Ac-DKP 14F(E), 5N-trifluoroacetyl diketopiperazine] ?
Output: 4.50

Task: Param readout = pIC50; param system = CCRF-CEM cells; param query = C=CC(C)(C)C12CC3C(=O)N(C(C)=O)C(C)C(=O)N3C1N(C(C)=O)c1ccccc12 (stereo not drawn) [Imide Di-Ac-DKP Amide 14(D), imide diacetate diketopiperazine] ; response: value
Output: 4.19

* * *

Test system: CCRF-CEM cells
EXPERIMENTAL DETAILS: Cytotoxicity / growth inhibition of CCRF-CEM leukemic cells
MEASUREMENT CONDITIONS: Homo sapiens, Table 6, CCRF-CEM
PARAMETER MEASURED: pIC50
# pIC50: negative log10 of molar concentration; output just the value

MOLECULE	PARAMETER MEASURED	ENDPOINT RESULT
C=CC(C)(C)C12CC3C(=O)NC(C)C(=O)N3C1Nc1ccccc12 (stereo not drawn)	pIC50	3.83
C=CC(C)(C)C12CC3C(=O)N(C(C)=O)C(C)C(=O)N3C1N(C(C)=O)c1ccccc12 (stereo not drawn) [Imide Di-Ac-DKP Amide 14(D), imide diacetate diketopiperazine]	pIC50	4.20

Task: Which pIC50 reading was recorded for the molecule C=CC(C)(C)C12CC3C(=O)N(C(=O)OC(C)(C)C)C(C)C(=O)N3C1Nc1ccccc12 (stereo not drawn) [Imide-BOC-DKP 14(C), imide-BOC diketopiperazine] ?
Output: 4.05

Task: Could you tell me which pIC50 is on file for C=CC(C)(C)C12CC3C(=O)NC(C)C(=O)N3C1N(C(C)=O)c1ccccc12 (stereo not drawn) [5N-Ac-DKP 14(E), N-acetyldiketopiperazine] ?
Output: 3.65

Task: Which pIC50 value is on record for C=CC(C)(C)C12CC3C(=O)N(C(C)=O)C(C)C(=O)N3C1Nc1ccccc12 (stereo not drawn) [Imide-Ac-DKP 14(A), imide acetate diketopiperazine] ?
Output: 4.32

Task: What pIC50 value was documented for this molecule, C=CC(C)(C)C12CC3c4nc5ccccc5c(=O)n4C(C)C(=O)N3C1N(C(C)=O)c1ccccc12 (stereo not drawn) ?
Output: 4.76
